These entries and their values trace back to patent US20200171136A1.

Molecular target: Endoplasmic reticulum aminopeptidase 1 (ERAP1) (UniProt Q9NZ08 1-941, limits assumed)
Sequence (Q9NZ08 whole entry): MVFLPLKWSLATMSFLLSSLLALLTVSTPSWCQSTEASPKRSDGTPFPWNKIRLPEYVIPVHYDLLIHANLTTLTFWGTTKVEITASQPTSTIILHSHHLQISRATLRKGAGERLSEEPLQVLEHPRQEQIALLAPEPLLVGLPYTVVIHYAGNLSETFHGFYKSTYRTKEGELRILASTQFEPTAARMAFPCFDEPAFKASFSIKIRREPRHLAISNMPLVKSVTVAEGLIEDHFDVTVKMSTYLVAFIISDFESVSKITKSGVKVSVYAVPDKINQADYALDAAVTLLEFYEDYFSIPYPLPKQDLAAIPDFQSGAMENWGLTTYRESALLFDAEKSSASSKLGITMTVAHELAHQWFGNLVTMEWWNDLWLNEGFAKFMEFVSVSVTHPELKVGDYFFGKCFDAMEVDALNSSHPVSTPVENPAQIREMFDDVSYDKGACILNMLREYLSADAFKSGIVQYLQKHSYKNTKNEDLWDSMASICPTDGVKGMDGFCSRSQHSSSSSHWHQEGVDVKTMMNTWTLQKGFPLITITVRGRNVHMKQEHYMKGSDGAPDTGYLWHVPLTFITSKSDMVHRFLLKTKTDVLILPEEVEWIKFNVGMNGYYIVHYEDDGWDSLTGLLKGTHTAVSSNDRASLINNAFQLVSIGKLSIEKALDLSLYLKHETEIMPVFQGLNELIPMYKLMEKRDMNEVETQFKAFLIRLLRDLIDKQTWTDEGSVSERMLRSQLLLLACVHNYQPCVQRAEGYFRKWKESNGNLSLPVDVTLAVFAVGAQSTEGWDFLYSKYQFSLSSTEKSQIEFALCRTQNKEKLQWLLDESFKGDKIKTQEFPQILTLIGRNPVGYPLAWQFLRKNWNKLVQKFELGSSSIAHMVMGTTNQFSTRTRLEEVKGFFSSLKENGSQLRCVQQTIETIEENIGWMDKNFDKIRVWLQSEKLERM
Assay: cell-based or functional assay
Measurement label: formation rate (%) 4 hr later

I = CAGLYDGMEHL [peptide CAGLYDGMEHL (SEQ ID NO: 89)]
II = CAVLQELNVTV [peptide CAVLQELNVTV (SEQ ID NO: 92)]
(Q) Which record would sort first by descending formation rate (%) 4 hr later, I or II ? Respond using the label that marks the chosen record.
(A) I
(I: 103%, II: 51.3%)

I = CLGLYDGMEHL [peptide CLGLYDGMEHL (SEQ ID NO: 90)]
II = CLVLQELNVTV [peptide CLVLQELNVTV (SEQ ID NO: 93)]
(Q) Which of these two has the smaller recorded formation rate (%) 4 hr later: I or II ? Respond using the label that marks the chosen record.
(A) II
(II: 38.1%, I: 88.4%)

1 = CVLQELNVTV [peptide CVLQELNVTV (SEQ ID NO: 99)]
2 = CMVLQELNVTV [peptide CMVLQELNVTV (SEQ ID NO: 94)]
(Q) Which record would sort first by descending formation rate (%) 4 hr later, 1 or 2 ? Respond using the label that marks the chosen record.
(A) 1
